Tested on: NB10;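 also: growth inhibition of NB10 cells, read out by a cell viability assay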
TEST PROTOCOL: cells
Format: functional, cell-based, Homo sapiens
EXPERIMENTAL PARAMETERS: Homo sapiens, NB10
Description: SANGER: Inhibition of human NB10 cell growth in a cell viability assay.
Provide the reported IC50 of each item.

Look over these answered cases.
Oc1ccc2ccccc2c1SSc1c(O)ccc2ccccc12 | > 32000 nM
Nc1ccn([C@@H]2O[C@H](CO)[C@@H](O)C2(F)F)c(=O)n1 | 24.4 nM

# map each compound to its IC50
1. COc1cc2ncn(-c3cc(OCc4ccccc4C(F)(F)F)c(C(N)=O)s3)c2cc1OC [GW843682X]
2. N[C@@H](CSC(c1ccccc1)(c1ccccc1)c1ccccc1)C(=O)O
3. N#Cc1c(O)c2c(-c3ccc(-c4ccccc4O)cc3)csc2[nH]c1=O

Response line:
> 256 nM
> 5120 nM
> 1020 nM

###

Tested on: ZR-75-30;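 also: growth inhibition of ZR-75-30 cells, measured with a cell viability readout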
TEST PROTOCOL: cells
Assay type: functional, cell-based, Homo sapiens
EXPERIMENTAL PARAMETERS: zr-75-30
Description: SANGER: Inhibition of human ZR-75-30 cell growth in a cell viability assay.
EXPERIMENTAL READOUT: IC50 (µM)
One number for each entry, in µM.

Prompt line: What value of IC50 has been reported for the following sequence? CISPLATIN
Response line: 72.2

###

So I've got a bunch of compounds here, and I need their pIC50 values.
Test system: Daudi;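 also: growth inhibition of Daudi cells, read out by a viability assay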
TEST PROTOCOL: cells
Assay type: functional, cell-based, Homo sapiens
EXPERIMENTAL PARAMETERS: Homo sapiens, Daudi
Description: SANGER: Inhibition of human Daudi cell growth in a cell viability assay.
Answers are plain numbers, as −log10 of the molar value.

Some compounds with recorded pIC50:
N#Cc1c(O)c2c(-c3ccc(-c4ccccc4O)cc3)csc2[nH]c1=O | 7.30
Nc1ccn([C@@H]2O[C@H](CO)[C@@H](O)C2(F)F)c(=O)n1 | 6.24

Prompt line: // pIC50 lookup, key: Oc1ccc2ccccc2c1SSc1c(O)ccc2ccccc12
Response line: 5.25

###

Would you mind telling me the reported pIC50 of each entry?
Tested on: SBC-1;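 also: cell viability assay measuring growth inhibition of the SBC-1 cell line, IC50 being the concentration that halves growth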
TEST PROTOCOL: cells
Type: functional, cell-based, Homo sapiens
EXPERIMENTAL PARAMETERS: Homo sapiens, SBC-1
Description: SANGER: Inhibition of human SBC-1 cell growth in a cell viability assay.
pIC50: −log10 of the molar value.

The following compounds have reported results that may help.
Cc1ccc(-c2c(C(=O)CCl)n(CCCO)c3ncnc(N)c23)cc1 | < 5.40
CS(=O)(=O)c1ccc(C(=O)Nc2ccc(Cl)c(-c3ccccn3)c2)c(Cl)c1 [VISMODEGIB] | < 5.00

Would you mind listing pIC50 for each of the following compounds?
1. CCC/C=C/C=C/C(=O)O[C@H]1/C(=C/C(=O)OC)C[C@H]2C[C@H]([C@@H](C)O)OC(=O)C[C@H](O)C[C@@H]3C[C@H](OC(C)=O)C(C)(C)[C@](O)(C[C@@H]4C/C(=C/C(=O)OC)C[C@H](/C=C/C(C)(C)[C@]1(O)O2)O4)O3 [BRYOSTATIN 1]
2. N[C@@H](CSC(c1ccccc1)(c1ccccc1)c1ccccc1)C(=O)O [S-TRITYL-L-CYSTEINE]

Response line:
1. < 8.10
2. < 5.29

###

Test system: KYSE-180;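 also: growth inhibition of KYSE-180 cells, read out with a cell viability assay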
TEST PROTOCOL: cells
Format: functional, cell-based, Homo sapiens
EXPERIMENTAL PARAMETERS: Homo sapiens, KYSE-180
Description: SANGER: Inhibition of human KYSE-180 cell growth in a cell viability assay.
pIC50: −log10 of the molar value.
Exercise: for every item that follows, state its recorded pIC50.

Reference set (3 entries):
Nc1cccc2c1CN(C1CCC(=O)NC1=O)C2=O (stereo not given) [LENALIDOMIDE] | < 5.30
CC(C)CCN1c2nc(Nc3cc(F)c(O)c(F)c3)ncc2N(C)C(=O)C1C (stereo not given) | < 5.30
CCC/C=C/C=C/C(=O)O[C@H]1/C(=C/C(=O)OC)C[C@H]2C[C@H]([C@@H](C)O)OC(=O)C[C@H](O)C[C@@H]3C[C@H](OC(C)=O)C(C)(C)[C@](O)(C[C@@H]4C/C(=C/C(=O)OC)C[C@H](/C=C/C(C)(C)[C@]1(O)O2)O4)O3 | < 8.10

Dear colleague, could you please provide pIC50 for the molecules listed below?
1. COc1cccc2c1C(=O)c1c(O)c3c(c(O)c1C2=O)C[C@@](O)(C(=O)CO)C[C@@H]3O[C@H]1C[C@H](N)[C@H](O)[C@H](C)O1
2. CC1(C)CNc2cc(NC(=O)c3cccnc3NCc3ccncc3)ccc21

Response line:
7.22
< 5.70

###

Tested on: BT-549
TEST PROTOCOL: cells
Type: functional, cell-based, Homo sapiens
EXPERIMENTAL PARAMETERS: Homo sapiens, BT-549
Description: SANGER: Inhibition of human BT-549 cell growth in a cell viability assay.
EXPERIMENTAL READOUT: IC50

Hello, I would appreciate it if you could give IC50 for each entry below.
1. CN(C)C(=N)NC(=N)N
2. Cc1cn(-c2cc(NC(=O)c3ccc(C)c(Nc4nccc(-c5cccnc5)n4)c3)cc(C(F)(F)F)c2)cn1

Response line:
1: 4.2 mM; 2: > 0.002 mM

###

Test system: K5
TEST PROTOCOL: cells
Type: functional, cell-based, Homo sapiens
EXPERIMENTAL PARAMETERS: Homo sapiens, K5
Description: SANGER: Inhibition of human K5 cell growth in a cell viability assay.
Please provide measured IC50 for the entries that follow.
Give bare numbers, in nM.

COc1cc2ncn(-c3cc(OCc4ccccc4C(F)(F)F)c(C(N)=O)s3)c2cc1OC [GW843682X] | 72.7

Turning to the following molecule.
Prompt line: Which measured IC50 value corresponds to COc1cccc2c1C(=O)c1c(O)c3c(c(O)c1C2=O)C[C@@](O)(C(=O)CO)C[C@@H]3O[C@H]1C[C@H](N)[C@H](O)[C@H](C)O1 ?
Response line: 96.9

###

Tested on: CP66-MEL;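 also: growth inhibition of CP66-MEL cells determined in a cell viability assay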
TEST PROTOCOL: cells
Type: functional, cell-based, Homo sapiens
EXPERIMENTAL PARAMETERS: Homo sapiens, CP66-MEL
Description: SANGER: Inhibition of human CP66-MEL cell growth in a cell viability assay.
I'd be grateful if you could share measured IC50 for these entries.

CCN(CC)CCNC(=O)c1c(C)[nH]c(/C=C2\C(=O)Nc3ccc(F)cc32)c1C | > 8000 nM
CCC/C=C/C=C/C(=O)O[C@H]1/C(=C/C(=O)OC)C[C@H]2C[C@H]([C@@H](C)O)OC(=O)C[C@H](O)C[C@@H]3C[C@H](OC(C)=O)C(C)(C)[C@](O)(C[C@@H]4C/C(=C/C(=O)OC)C[C@H](/C=C/C(C)(C)[C@]1(O)O2)O4)O3 | > 8 nM

Dear colleague, could you send me IC50 for each of the items below? Thanks.
1. CC(=O)O[C@H]1C(=O)[C@@]2(C)[C@H]([C@H](OC(=O)c3ccccc3)[C@]3(O)C[C@H](OC(=O)[C@H](O)[C@@H](NC(=O)c4ccccc4)c4ccccc4)C(C)=C1C3(C)C)[C@]1(OC(C)=O)CO[C@@H]1C[C@@H]2O
2. O=C(O)c1ccc(-c2c[nH]c3ncc(-c4ccccc4)cc23)cc1C1CCCC1

Response line:
1: > 102 nM; 2: > 16000 nM

Prompt line: # query: IC50 of entry COc1cccc2c1C(=O)c1c(O)c3c(c(O)c1C2=O)C[C@@](O)(C(=O)CO)C[C@@H]3O[C@H]1C[C@H](N)[C@H](O)[C@H](C)O1
Response line: > 1020 nM

###

Test system: SNU-5;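 also: cell viability readout used to measure growth inhibition in human NCI-SNU-5 cells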
TEST PROTOCOL: cells
Type: functional, cell-based, Homo sapiens
EXPERIMENTAL PARAMETERS: Homo sapiens, SNU-5
Description: SANGER: Inhibition of human NCI-SNU-5 cell growth in a cell viability assay.
pIC50: −log10 of the molar value.
EXPERIMENTAL READOUT: pIC50

# count of solved cases: 4
COc1cc2ncn(-c3cc(OCc4ccccc4C(F)(F)F)c(C(N)=O)s3)c2cc1OC [GW843682X] | 7.28
CS(=O)(=O)c1ccc(C(=O)Nc2ccc(Cl)c(-c3ccccn3)c2)c(Cl)c1 | < 5.00
COc1cc2c(Nc3ccc(NC(=O)c4ccccc4)cc3)ncnc2cc1OCCCN1CCOCC1 | < 5.40
C=C(c1ccc(C(=O)O)cc1)c1cc2c(cc1C)C(C)(C)CCC2(C)C | < 5.10

Prompt line: Kindly state the measured pIC50 obtained for Cc1ccc(-c2c(C(=O)CCl)n(CCCO)c3ncnc(N)c23)cc1 with SNU-5.
Response line: < 5.40

###

Tested on: GAMG;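 also: cell growth inhibition measured by a viability assay in the GAMG human cell line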
TEST PROTOCOL: cells
Format: functional, cell-based, Homo sapiens
EXPERIMENTAL PARAMETERS: Homo sapiens, GAMG
Description: SANGER: Inhibition of human GAMG cell growth in a cell viability assay.
pIC50: −log10 of the molar value.
EXPERIMENTAL READOUT: pIC50

CN(C)C(=N)NC(=N)N | < 1.70
CCN(CC)CCCCNc1ncc2cc(-c3cc(OC)cc(OC)c3)c(NC(=O)NC(C)(C)C)nc2n1 | < 5.70
N#Cc1c(O)c2c(-c3ccc(-c4ccccc4O)cc3)csc2[nH]c1=O | < 5.99
CC(C)c1ccccc1Cc1cc(C(=O)Nc2ccc(S(=O)(=O)c3ccccc3C(C)(C)C)cc2)c(O)c(O)c1O | 6.67
CCC/C=C/C=C/C(=O)O[C@H]1/C(=C/C(=O)OC)C[C@H]2C[C@H]([C@@H](C)O)OC(=O)C[C@H](O)C[C@@H]3C[C@H](OC(C)=O)C(C)(C)[C@](O)(C[C@@H]4C/C(=C/C(=O)OC)C[C@H](/C=C/C(C)(C)[C@]1(O)O2)O4)O3 | < 8.10
O=C(O)c1ccc(-c2c[nH]c3ncc(-c4ccccc4)cc23)cc1C1CCCC1 | 5.41

Could you tell me pIC50 for each of these compounds? They are listed below.
1. C=C(c1ccc(C(=O)O)cc1)c1cc2c(cc1C)C(C)(C)CCC2(C)C
2. CC1(C)CNc2cc(NC(=O)c3cccnc3NCc3ccncc3)ccc21

Response line:
["< 5.10", "< 5.70"]
